Molecular target: Tyrosine-protein phosphatase non-receptor type 11 (Homo sapiens, UniProt Q06124)
Sequence (Q06124 whole entry): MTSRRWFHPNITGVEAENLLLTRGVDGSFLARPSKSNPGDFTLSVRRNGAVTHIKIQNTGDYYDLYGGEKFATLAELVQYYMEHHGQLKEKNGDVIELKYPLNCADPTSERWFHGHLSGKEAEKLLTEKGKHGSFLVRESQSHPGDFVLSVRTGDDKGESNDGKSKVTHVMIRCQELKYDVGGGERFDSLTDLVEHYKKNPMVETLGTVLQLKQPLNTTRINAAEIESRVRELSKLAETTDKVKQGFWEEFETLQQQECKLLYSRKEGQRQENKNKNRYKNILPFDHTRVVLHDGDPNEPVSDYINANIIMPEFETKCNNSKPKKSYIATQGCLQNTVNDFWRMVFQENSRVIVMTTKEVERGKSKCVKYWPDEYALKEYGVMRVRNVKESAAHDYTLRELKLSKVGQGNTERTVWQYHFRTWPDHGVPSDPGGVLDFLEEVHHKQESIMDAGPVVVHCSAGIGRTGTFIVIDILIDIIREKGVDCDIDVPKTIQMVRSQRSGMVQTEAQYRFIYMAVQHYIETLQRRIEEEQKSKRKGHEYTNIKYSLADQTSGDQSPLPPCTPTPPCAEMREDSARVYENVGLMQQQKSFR
Test: SHP2 Allosteric Inhibitory Enzyme Activity Assay
measure: IC50 (nM)

Sample answers from the record:
CC(=O)c1cccc(OCC#Cc2cnc(N3CCC4(CC3)Cc3ccccc3[C@H]4N)c(CO)n2)c1 | 2.4
CNC(=O)c1cccc(OCC#Cc2cnc(N3CCC4(CC3)Cc3ccccc3[C@H]4N)c(CO)n2)c1 | 2.2

[A] N[C@@H]1c2ccccc2CC12CCN(c1ncc(C#CCOc3ccc4[nH]ncc4c3)nc1CO)CC2
[B] CC(=O)Nc1cccc(OCC#Cc2cnc(N3CCC4(CC3)Cc3ccccc3[C@H]4N)n(C)c2=O)c1
[C] N[C@@H]1c2ccccc2CC12CCN(c1ncc(C#CCOc3cccc(OC(F)(F)F)c3)nc1CO)CC2
[D] N[C@@H]1c2ccccc2CC12CCN(c1ncc(C#CCOc3ccc4c(c3)NC(=O)C4)nc1CO)CC2
Rank order required: IC50, descending. List the labels according to the requested ordering.
C, B, A, D
(C: 11 nM, B: 5.3 nM, A: 3.1 nM, D: 1.7 nM)

[P] N[C@@H]1c2ccccc2CC12CCN(c1ncc(C#CCOc3cccc(Cl)c3F)nc1CO)CC2
[Q] N#Cc1ccc(OCC#Cc2cnc(N3CCC4(CC3)Cc3ccccc3[C@H]4N)c(CO)n2)cc1
Among P and Q , which shows a numerically higher IC50 result? Choose, then provide that item's label.
P

[I] COc1ccccc1OCC#Cc1cnc(N2CCC3(CC2)Cc2ccccc2[C@H]3N)c(CO)n1
[II] CN(C)C(=O)c1cccc(OCC#Cc2cnc(N3CCC4(CC3)Cc3ccccc3[C@H]4N)c(CO)n2)c1
Please let me know which one, I or II , has a lower measured IC50 value. Choose, then provide that item's label.
I
